Measured self-aminoacylation of individual entries
system: biotinyl-Phe-oxazolone; experiment: self-aminoacylation, catalytic enhancement (BFO) (fold over background); higher = more active; k-Seq, kA / k0A0; sequences stand for … in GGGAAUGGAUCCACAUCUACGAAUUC…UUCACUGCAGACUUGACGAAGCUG
Fewer inactive variants are shown than the library holds.
assay.metric: self-aminoacylation

- AUUACCCUUGUCAUCGAGUCA [Fam2.1 aminoacylation ribozyme variant]: 0.6
- AAGUUUGCUAAUAGUGGCACG [Fam3.1 aminoacylation ribozyme variant]: 0.682
- AAGUUUGCCAAUAGUUGCAAG [Fam3.1 aminoacylation ribozyme variant]: 1.39
- CUACUACAAACAAUGGGUCUG [Fam1A.1 aminoacylation ribozyme variant]: 0.955

====

system: biotinyl-Leu-oxazolone; assay: self-aminoacylation, catalytic enhancement (BLO) (fold over background); higher = more active; k-Seq, kA / k0A0; sequences stand for … in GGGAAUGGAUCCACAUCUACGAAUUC…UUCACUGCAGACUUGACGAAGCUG
Fewer inactive variants are shown than the library holds.
Hi all, reminder that labels come from self-aminoacylation, split as class 1 = under 0.9, class 2 = from 0.9 up to 3, class 3 = 3 and over

- ACUCACCUAGGUCAUCGGGUA [Fam2.2 aminoacylation ribozyme variant]: class 3
- CUACUUCACACAAGCGGUCUG [Fam1A.1 aminoacylation ribozyme variant]: class 1
- CUACUUCUAACCAUCGGUCUG [Fam1A.1 aminoacylation ribozyme variant]: class 1
- AUUACCUUGGUCAACGAGUGA [Fam2.1 aminoacylation ribozyme variant]: class 3
- CUUCACCUAGGUCAUCCGGUG [Fam2.2 aminoacylation ribozyme variant]: class 3
- CCACACUUCAAUCAAUGGGUC [Fam1B.1 aminoacylation ribozyme variant]: class 1
- CUCCUUCAAACAAUCGGUCUG [Fam1A.1 aminoacylation ribozyme variant]: class 2
- AUUACCCUGGCCAUCAAGUGA [Fam2.1 aminoacylation ribozyme variant]: class 2
- AUUCACCUCGGUCGUCGGGUG [Fam2.2 aminoacylation ribozyme variant]: class 2
- CCACAUUUCAAGCAAUCGCUC [Fam1B.1 aminoacylation ribozyme variant]: class 2
- AAGUUUGCUAAUAGUAACAAG [Fam3.1 aminoacylation ribozyme variant]: class 2
- CUACUUCACACGAUCGGUCUG [Fam1A.1 aminoacylation ribozyme variant]: class 1
- AUUUCCCUGGUCAUCCAGUGA [Fam2.1 aminoacylation ribozyme variant]: class 3
- CUACUACAAACAAUAGGUCUG [Fam1A.1 aminoacylation ribozyme variant]: class 1
- CUACUCCAAAGAAUCGGUCUG [Fam1A.1 aminoacylation ribozyme variant]: class 2
- AUUCACCUAGGUCAUAGGGUA [Fam2.2 aminoacylation ribozyme variant]: class 1
- AUUCCCCAGGUCAUCGAGUGA [Fam2.1 aminoacylation ribozyme variant]: class 3
- CUAAUUGAAACAAUCGGUCUG [Fam1A.1 aminoacylation ribozyme variant]: class 1
- CCUCACUUCAAGCAAUCGGUG [Fam1B.1 aminoacylation ribozyme variant]: class 3
- AUUCGCCUAGGUCAGCGGGUG [Fam2.2 aminoacylation ribozyme variant]: class 3
- AUUCACCUAGGUGAUCGGGUU [Fam2.2 aminoacylation ribozyme variant]: class 2
- AUUCACUUAGGUCAUCGGGGG [Fam2.2 aminoacylation ribozyme variant]: class 2
- AUCACCCUGAUCAUCGAGUGA [Fam2.1 aminoacylation ribozyme variant]: class 3
- AUUAUCUUGGUCAUCGAGUGA [Fam2.1 aminoacylation ribozyme variant]: class 3
- AUUACACUGGUCAUCGAGUCA [Fam2.1 aminoacylation ribozyme variant]: class 1
- CUACCUCAAACAAUCGUUCUG [Fam1A.1 aminoacylation ribozyme variant]: class 1
- AAGUUGGCUAAUAGUCGGAAG [Fam3.1 aminoacylation ribozyme variant]: class 2
- CUACAUAAAACAAUCGGUCUG [Fam1A.1 aminoacylation ribozyme variant]: class 1
- CUUCUUCAAACAAUAGGUCUG [Fam1A.1 aminoacylation ribozyme variant]: class 1
- AAGUUUGCUAAAAGUCGUAAG [Fam3.1 aminoacylation ribozyme variant]: class 2
- AUUACACUGGACAUCGAGUGA [Fam2.1 aminoacylation ribozyme variant]: class 3
- AUUCACGUAGGUCAUCGGGGG [Fam2.2 aminoacylation ribozyme variant]: class 2
- AUUAACCUGCUCAUCGAGUGA [Fam2.1 aminoacylation ribozyme variant]: class 2
- AUUCACCAAGGUCAGCGGGUG [Fam2.2 aminoacylation ribozyme variant]: class 3
